Target: beta-catenin/TCF4 engagement (Homo sapiens, UniProt P35222)
Construct: expressed in transfected cells; host or cells: HEK293
Sequence (P35222 1-781): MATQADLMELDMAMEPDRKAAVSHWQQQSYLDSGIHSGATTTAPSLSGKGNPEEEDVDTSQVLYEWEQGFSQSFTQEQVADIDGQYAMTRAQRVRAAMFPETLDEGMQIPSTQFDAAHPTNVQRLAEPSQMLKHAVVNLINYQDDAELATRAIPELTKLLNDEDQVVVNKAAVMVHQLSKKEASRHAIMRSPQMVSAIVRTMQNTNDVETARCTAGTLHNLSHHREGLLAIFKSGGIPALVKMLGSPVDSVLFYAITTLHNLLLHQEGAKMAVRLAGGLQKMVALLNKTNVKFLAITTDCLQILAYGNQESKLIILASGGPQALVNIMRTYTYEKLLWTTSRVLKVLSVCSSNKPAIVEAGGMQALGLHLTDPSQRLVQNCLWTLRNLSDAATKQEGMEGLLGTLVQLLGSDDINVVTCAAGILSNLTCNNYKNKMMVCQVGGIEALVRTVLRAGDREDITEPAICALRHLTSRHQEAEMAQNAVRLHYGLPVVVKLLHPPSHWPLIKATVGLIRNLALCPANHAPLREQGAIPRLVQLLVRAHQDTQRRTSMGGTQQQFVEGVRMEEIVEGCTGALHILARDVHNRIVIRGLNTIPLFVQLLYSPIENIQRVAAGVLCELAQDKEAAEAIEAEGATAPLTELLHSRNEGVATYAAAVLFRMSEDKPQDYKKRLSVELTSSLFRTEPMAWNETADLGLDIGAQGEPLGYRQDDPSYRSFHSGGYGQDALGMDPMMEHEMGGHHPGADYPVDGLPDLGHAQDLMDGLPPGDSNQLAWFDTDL
Assay: Nano-BRET target engagement assay (B-cat-Halo & TCF4-Luc in HEK293 cells)
Type: cell-based
Settings: read-out: NanoBRET Abs IC50
pIC50: −log10 of the molar value.

Compound	pIC50
CC(=O)N1CCC[C@]12CC=CCCCC1(CCCC=CCCCOC(=O)N3CC[C@@](C(=O)N[C@@H](Cc4ccsc4)C(=O)N[C@@H](Cc4csc5ccccc45)C(=O)N[C@H](C(N)=O)[C@@H](C)O)(C3)NC(=O)[C@H](CC(N)=O)NC(=O)[C@H](Cc3ccccc3)NC(=O)[C@H](C)NC(=O)[C@H](C)NC(=O)[C@H](CC(=O)O)NC(=O)[C@H](CC(=O)O)NC1=O)NC(=O)[C@H](CC(C)(C)C)NC(=O)[C@H](CC(=O)O)NC2=O (stereo partly drawn)	4.72
CC(=O)N1CCC[C@]12CC=CCCCC1(CCCC=CCCCOC(=O)N3CC[C@@](C(=O)N[C@@H](Cc4ccsc4)C(=O)N[C@@H](Cc4csc5ccccc45)C(=O)N[C@@H](CCC(N)=O)C(N)=O)(C3)NC(=O)[C@H](CC(N)=O)NC(=O)[C@H](Cc3ccccc3)NC(=O)[C@H](CCCCNC(=O)C(C)(c3ccccc3)c3ccccc3)NC(=O)[C@H](C)NC(=O)[C@H](CC(=O)O)NC(=O)[C@H](CC(=O)O)NC1=O)NC(=O)[C@H](CC(C)(C)C)NC(=O)[C@H](CC(=O)O)NC2=O (stereo partly drawn)	< 4.70
CC(C)C[C@H](NC(=O)[C@]12CCN(C1)C(=O)OCCCC=CCCCC1(CCCC=CCCC(=O)N3CCC[C@@]3(C)C(=O)N[C@@H](CC(=O)O)C(=O)N1)C(=O)N[C@@H](C)C(=O)N[C@@H](CC(=O)O)C(=O)N[C@@H](CC(=O)O)C(=O)N[C@@H](C)C(=O)N[C@@H](C)C(=O)N[C@@H](Cc1ccccc1)C(=O)N2)C(=O)N[C@@H](Cc1ccsc1)C(=O)N[C@@H](Cc1csc2ccccc12)C(=O)N[C@@H](CCC(N)=O)C(N)=O (stereo partly drawn)	< 4.70
